test system: DeltatarO mutant; experiment: S. aureus survival, RN4220 and DeltatarO strains – OD600, teichoic acid synthesis inhibitors, primary screen (AID 463173); conditions: S. aureus RN4220 wild type/DeltatarO growth, OD600, 18 h, hits give low values, screened at 18.75 µg/mL (by protocol)
The campaign covered roughly 52,000 compounds. About 4,300 (8.3%) were called active. The sample holds actives, similar compounds and a random draw of the others, so the mix is not that of the screen.
// values below are reported survival

Molecule	survival (%)
O=C(CCS(=O)(=O)c1cc(Br)cc2c1N(C(=O)C1CC1)CC2)N1CCN(c2ccccc2)CC1	91
CC(C)(C)c1ccc(-c2nc3cc(NC(=O)c4cccc(Br)c4)ccc3o2)cc1	73
CC1CCc2sc3ncnc(NCCCN(C)C)c3c2C1 (stereo unspecified)	117
Cc1cccc(C(=O)Nc2ccc(-c3nc4cc(C(C)C)ccc4o3)cc2)c1	34
Cc1ccc(C)c(NC(=O)CN(CCc2ccccc2)S(=O)(=O)c2ccccc2)c1	46
COc1cc(OC)c(NC(=O)CCc2nc(C3=CCN(Cc4cccc(Cl)c4)CC3)no2)cc1Cl	75
COc1ccc(S(=O)(=O)N(CCc2ccccc2)CC(=O)Nc2cc(Cl)ccc2C)cc1	58
CC(=O)N1CCc2cc(Br)cc(S(=O)(=O)CCC(=O)N3CCN(c4ccc(F)cc4)CC3)c21	67
COc1ccc(S(=O)(=O)N(CCc2ccccc2)CC(=O)Nc2cc(C)ccc2C)cc1	48
CCOc1ccccc1NC(=O)CN(CCc1ccccc1)S(=O)(=O)c1ccc(C)cc1	106
Cc1ccc(NC(=O)c2sc3ncnc(N(C)C4CCCCC4)c3c2C)cc1	144
CCOc1ccc(Cn2c(=O)oc3ccccc32)cc1	117
CC(=O)N1CCc2cc(Br)cc(S(=O)(=O)CCC(=O)N3CCN(c4ccccc4Cl)CC3)c21	61
Cc1c(Cl)cccc1NC(=O)CN(CCc1ccccc1)S(=O)(=O)c1ccccc1	49
COc1ccc(OC)c(CCNC(=O)c2ccc3[nH]c(C)c(C)c3c2)c1	107
Cc1cccc(C(=O)Nc2ccc3oc(-c4cccc5c(Br)cccc45)nc3c2)c1	67
CC(=O)N1CCc2cc(Br)cc(S(=O)(=O)CCC(=O)N3CCN(c4ccccc4)CC3)c21	53
CCOc1ccc(CN2CCN(C(=O)c3ccco3)CC2)cc1	77
Cc1cccc(C(=O)Nc2ccc3oc(-c4ccncc4)nc3c2)c1	62
CCOc1ccc(CN2CCN(Cc3ccc4c(c3)c3ccccc3n4CC)CC2)cc1	0
Cc1cccc(C)c1NC(=O)CCSCCc1ccccn1	86

---

test system: DeltatarO mutant; assay: S. aureus survival, RN4220 and DeltatarO strains – OD600, teichoic acid synthesis inhibitors, primary screen (AID 463173); conditions: S. aureus RN4220 wild type/DeltatarO growth, OD600, 18 h, screened at 18.75 µg/mL (by protocol)
Hit rate of the full screen: of about 52,000 compounds, about 4,300 (8.3%) were called active. Rule as the data show it: active = survival mostly below about 52% (no sharp cut-off); inactive = mostly above about 56%. The sample as a whole holds a higher share of actives than the screen did.
Classes used: active, inactive

Molecule	Category label
O=C(CSc1nccn1-c1ccc(F)cc1)Nc1ccc(OC(F)(F)F)cc1	inactive
COC(=O)CC(=O)CSc1nc(C)cc(C)c1C#N	inactive
COc1cc(C(=O)N2CCN(CCc3ccncc3)CC2)cc(OC)c1OC	inactive
CN(C)c1ccc(CNC(=O)CCCN2C(=O)c3cccnc3Oc3ccc(Cl)cc32)cc1	inactive
CC1=CC(C)C(/C=N/N=C(N)N)C(C)C1 (stereo unspecified)	inactive
CSc1ncc(C(=O)N2CCN(c3cccc(Cl)c3)CC2)c(C)n1	active
CCCCc1nn2c(=O)cc(COC(=O)c3ccc(NC(=O)C(CC)CC)cc3)nc2s1	inactive
CS(=O)(=O)c1ncc(Cl)c(C(=O)N2CCN(c3cccc(Cl)c3)CC2)n1	active
Fc1ccc(Nc2nc(Nc3ccc(F)cc3)nc(N3CCOCC3)n2)cc1	inactive
CCOc1ccc(CCNC(=O)c2cnc3sc(N(CC)CC)nn3c2=O)cc1OCC	inactive
Cc1ccc(Cn2c(=O)n(-c3ccc(C)cc3)c(=O)c3c2c2cc(C)ccc2n3C)cc1	active
COc1ccc2c(c1)c1c(c(=O)n(Cc3ccccc3)c(=O)n1CC(=O)Nc1ccccc1F)n2C	inactive
COc1ccc2c(c1)c1c(c(=O)n(CCc3ccccc3)c(=O)n1Cc1cccc(F)c1)n2C	inactive
Cc1ccc(-n2c(=O)c3c(c4cc(C)ccc4n3C)n(Cc3ccc(F)cc3)c2=O)cc1	inactive
Cc1ccc(Nc2c(-c3ccc(N4CCOCC4)cc3)nc3ncccn23)cc1C	inactive
CCc1ccc(NCc2cc3ccc(OC)cc3n(CC(=O)Nc3ccccc3C)c2=O)cc1	inactive
CC(C)(C)OC(=O)N1CCC(c2c(C(=O)NCc3ccco3)cnn2-c2ccc(F)cc2F)CC1	inactive
COc1ccc2c(c1)c1c(c(=O)n(CCc3ccccc3)c(=O)n1Cc1ccc(F)cc1)n2C	active
NNc1nc(N2CCOCC2)nc(N2CCOCC2)n1	inactive
Cc1cccc(Nc2nc(Nc3cccc(C)c3)nc(N3CCOCC3)n2)c1	active
COc1ccc2cc(CNc3ccccc3)c(=O)n(CC(=O)Nc3ccc(C)cc3C)c2c1	active

---

tested on: DeltatarO mutant; assay: S. aureus survival, RN4220 and DeltatarO strains – OD600, teichoic acid synthesis inhibitors, primary screen (AID 463173); conditions: S. aureus RN4220 wild type/DeltatarO growth, OD600, 18 h, hits give low values, screened at 18.75 µg/mL (by protocol)
Screen size: about 52,000 compounds; about 4,300 (8.3%) were called active. Many of the other results were omitted from the sample, so actives are more common in it than they were.
Outcome measure: survival (%)

Compound	Outcome measure	Units	Measured result
Cc1ccc(CNC(=O)C2CCN(S(=O)(=O)c3cn(C)cn3)CC2)cc1	survival	%	115
COc1ccc(CCNC(=O)CSc2n[nH]c(-c3ccccc3Cl)n2)cc1OC	survival	%	101
Cn1cnc(S(=O)(=O)N2CCC(C(=O)NCc3ccccc3Cl)CC2)c1	survival	%	118
CCOc1ccccc1NC(=O)C1CCN(S(=O)(=O)c2ccc3[nH]c(=O)ccc3c2)CC1	survival	%	63
COc1ccc(CCNC(=O)c2cc3c(s2)-c2c(C)cccc2OC3)c(OC)c1	survival	%	85
Cc1ccc(S(=O)(=O)c2nc(-c3ccccc3)oc2N2CCN(c3ccccc3)CC2)cc1	survival	%	85
Cc1ccc(-c2nc(S(=O)(=O)c3ccc(C)cc3)c(N3CCCCCC3)o2)cc1	survival	%	70
O=S(=O)(c1ccccc1)c1nc(-c2cccc(Cl)c2)oc1N1CCOCC1	survival	%	57
CCN1C(C(=O)c2ccccc2)=C(OC(=O)C(C)C)c2ccccc2S1(=O)=O	survival	%	67
COC(=O)c1ccccc1NS(=O)(=O)c1cc2c3c(c1)CC(=O)N3CCC2	survival	%	46
Cc1cccc2c1-c1sc(C(=O)N(C)c3cccc(C(F)(F)F)c3)cc1CO2	survival	%	52
CCCCN1C(C(=O)c2ccccc2)=C(OC(C)=O)c2ccccc2S1(=O)=O	survival	%	-4
Cc1ccc(-c2nc(S(=O)(=O)c3ccc(C)cc3)c(N3CCN(c4ccccc4)CC3)o2)cc1	survival	%	97
CN1CCN(C(=O)c2ccccc2C(=O)O)CC1	survival	%	96
COc1cc(Cl)c(C)cc1NC(=O)c1cc2c(s1)-c1c(C)cccc1OC2	survival	%	90
COc1ccccc1CNC(=O)C1CCN(S(=O)(=O)c2ccc3[nH]c(=O)ccc3c2)CC1	survival	%	102
Cn1cnc(S(=O)(=O)N2CCC(C(=O)NCc3ccc(Cl)cc3)CC2)c1	survival	%	101
CCOc1ccccc1CNC(=O)C1CCN(S(=O)(=O)c2ccc3[nH]c(=O)ccc3c2)CC1	survival	%	25
CCCCN1C(C(=O)c2ccccc2)=C(OC(=O)CC)c2ccccc2S1(=O)=O	survival	%	-4
Cc1ccc(-c2nc(S(=O)(=O)c3ccccc3)c(N3CCN(c4ccccc4)CC3)o2)cc1	survival	%	102
CN(C)c1ccc(CNC(=O)C2CCN(S(=O)(=O)c3cn(C)cn3)CC2)cc1	survival	%	0
O=C(Nc1onc2c1CCCC2)c1ccc(Cl)cc1	survival	%	77
COC(=O)C1CCN(S(=O)(=O)c2cc3c4c(c2)C(C)C(=O)N4CCC3)CC1 (stereo unspecified)	survival	%	99
Cc1ccc(S(=O)(=O)c2nc(-c3ccccc3)oc2N2CCCCCC2)cc1	survival	%	22
O=C1C(=O)N(C2CCN(C(=O)c3ccc(Cl)cc3)CC2)CCN1Cc1ccc(F)cc1	survival	%	78
O=C(COc1ccc(F)cc1)NCc1ccc2c(c1)CCN2C(=O)c1ccccc1	survival	%	81
O=c1c2cccnc2n(Cc2ccccc2F)c(=O)n1Cc1ccccc1Cl	survival	%	62
c1ccc(-c2cnnn2-c2ccccc2)cc1	survival	%	87
CCCCCN1C(C(=O)c2ccccc2)=C(NC(C)=O)c2ccccc2S1(=O)=O	survival	%	58
CC1C(=O)N2CCCc3cc(S(=O)(=O)N4CCC(C(N)=O)CC4)cc1c32 (stereo unspecified)	survival	%	0
O=S(=O)(c1ccccc1)c1nc(-c2ccc(F)cc2)oc1N1CCCCCC1	survival	%	33
CC1=C(C(=O)Nc2ccc(C)cc2C)C(c2cccn2C)n2ncnc2N1 (stereo unspecified)	survival	%	91
Cc1ccc(C)c(N2CCN(C(=O)C3CCN(S(=O)(=O)c4cn(C)cn4)CC3)CC2)c1	survival	%	64
Cc1ccc(N(C)C(=O)C2CCN(S(=O)(=O)c3cn(C)cn3)CC2)cc1	survival	%	37
O=C(Cn1c(=O)oc2cc(S(=O)(=O)N3CCCCCC3)ccc21)NCc1ccccc1Cl	survival	%	78
CCCCN(CCCC)C1=C(C(=O)c2ccccc2)N(CC)S(=O)(=O)c2ccccc21	survival	%	60
Cc1ccc(-c2nc(S(=O)(=O)c3ccc(C)cc3)c(N3CCCCC3)o2)cc1	survival	%	0
CCCCN(C)CCNC(=O)c1c2c(nc3ccccc13)C(=O)N(C1CCCCC1)C2	survival	%	102
COc1ccccc1CNC(=O)C1CCN(S(=O)(=O)c2cn(C)cn2)CC1	survival	%	0
CCOC(=O)c1cc(-c2ccccc2)n(CCC(=O)Nc2cc(C)cc(C)c2)c1C	survival	%	99
CCOC(=O)C1CCN(S(=O)(=O)c2cc3c4c(c2)CC(=O)N4CCC3)CC1	survival	%	83
